ASSAY NAME: amyloid nucleation score (Sup35N fusion, yeast selection) (log enrichment); library NNK1; higher = more nucleation; inactive = no reads after selection;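 further: zero at mode of non-aggregating sequences after 7 days selection at 30°C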
ATTRIBUTE MEASURED: amyloid nucleation score
Just the number, please, no unit attached.

Query: Field request: amyloid nucleation score | item: CPVFQHDDKDWLGVFKWLRN
Result: -1.32

Query: Same read-out for PCTMGMYIGAGHR ?
Result: 0.418

Query: What do we get for SLMIDRTRLGGN ?
Result: 0.769

Query: Now give it for SRCYMDSIV too.
Result: 0.101

Query: Continue with RERSIWFSFDGCRRRRRYGG
Result: 1.41

Query: // query: DDGPLWRMKEMCLVTVRGSE
Result: 0.91

Query: What about this substance? TKSMFGTCNMFKTKVLN
Result: -0.101

Query: Now this one: DCNLSSYLVYWAFHYDKLMS
Result: 0.083

Query: And the next one, RCCKQTSRVDMC ?
Result: 0.156

Query: Check GVPDFA too.
Result: 0.685

Query: Could you do the same for RAFAFTW , please?
Result: 2.38

Query: And for WHEHSYLENSIYITRIKINV ?
Result: 3.18

Query: Also check KLNGNINFCFNCGNSGF
Result: 7.27

Query: Now the substance GLFVREFPLDMIVVMVRSMC
Result: -0.017

Query: Query SRWTFSNRAFYRTGAWA next
Result: 0.235

Query: Try the substance TQDEMVSVRNKLSCVTLE
Result: 4.04

Query: Would you kindly repeat that for LKRDVTSVSGY ?
Result: 0.348

Query: Try this substance next: RFNISIPD
Result: -1.01

* * *

ASSAY NAME: amyloid nucleation score (Sup35N fusion, yeast selection) (log enrichment); library NNK3; higher = more nucleation; inactive = no reads after selection
ATTRIBUTE MEASURED: amyloid nucleation score

Below: 8 substances and their reported amyloid nucleation score.
| SUBSTANCE | amyloid nucleation score |
| --- | --- |
| YLLCGYRGATFRKHEVWGEG | -0.059 |
| WMPDPRVCQKMFVMCKHSP | inactive |
| LRLSGVMHRTFYCVVSGHGR | inactive |
| LKLTHD | inactive |
| HHYCRGSICESVSQMYWISW | inactive |
| LSFTHSSDTECCGER | inactive |
| CTRSVSILESLRDSNTSLSQ | inactive |
| CKGNINTYGYLYLDVYFYIM | 1.94 |

Query: Tell me the measured amyloid nucleation score of SIIGKNYKFRATSINKGISM , please.
Result: inactive

Query: Record: RRFVVGYRDLMMRFIVRHGE
Result: 0.403

Query: Next: THVPYIT
Result: inactive

* * *

Field: amyloid nucleation score. Provide a value for each of the substances that follow.
ASSAY NAME: amyloid nucleation score (Sup35N fusion, yeast selection) (log enrichment); library NNK1; higher = more nucleation; inactive = no reads after selection
Number only, no unit.

Query: Give its amyloid nucleation score value. Item: CGWSSMIVP
Result: 0.343

Query: Cool, now VPWFLHELQTVLAKVNRGQR
Result: -0.165

Query: Another substance to check: MNNCKGTI
Result: -0.679

Query: Now consider RIGTTWMMCIPWVLNCNV and answer again.
Result: 6.95

Query: Same read-out for DKDDEIY ?
Result: 1.42

Query: Next: ACYNGHTSRWLR
Result: 1.09

Query: Then this substance: DLPLDS
Result: 0.16

Query: Now this one: KLRRSIDTCNVYVWS
Result: -0.593

Query: And what about the substance HVLDRQLSPMDSNSYGCVAT ?
Result: 0.208

Query: Same question for KASDGLSINRGE please.
Result: 0.48

Query: Another substance to check: SASGAWSGWPHRKVGYGSSL
Result: 0.664

Query: Try the substance LSWVQSLKACNI
Result: 1.45

Query: Now try VYFIVVVKGRSGLFMLSFGD .
Result: -0.997

Query: Again, but for VGPIFLHTLRRSVN
Result: -0.532

Query: For PWYDRPRVSYSAFLVWIQLH then?
Result: -0.417

Query: Thanks! And CYRLWHGCKMGIPVQYLYGS ?
Result: -0.113

Query: Let us now turn to VSSGHLA
Result: 0.032

* * *

ASSAY NAME: amyloid nucleation score (Sup35N fusion, yeast selection) (log enrichment); library NNK1; higher = more nucleation; inactive = no reads after selection
Output schema: class label derived from amyloid nucleation score. Mapping: group 1: < -0.2; group 2: ≥ -0.2 and < 0.5; group 3: ≥ 0.5

Query: Pick a category. Item: ISINLRLVRHRGWGNISCWR
Result: group 3

Query: And what about the sequence PGLFYETDHVASVVVCKSPH ?
Result: group 1

Query: Thanks! And VHSCYLVLARQWNVIKISHI ?
Result: group 2

Query: Next: CGDMKRSHGCYFGPRNRFCW
Result: group 3

Query: Then what about the sequence ALHCQPVGH ?
Result: group 2

Query: Try the sequence LHLPHLRIRTNYSGLILSVM
Result: group 1

Query: Quick one: VGNEWSVLRLGGGVGSIFL
Result: group 1

Query: LGMSKLIMSNNVFNIFDSHP , same question.
Result: group 3

Query: Now consider FTRKEVVPMWDKEDRVCIGD and answer again.
Result: group 2

* * *

ASSAY NAME: amyloid nucleation score (Sup35N fusion, yeast selection) (log enrichment); library NNK3; higher = more nucleation; inactive = no reads after selection
ATTRIBUTE MEASURED: amyloid nucleation score

Here are 6 substances together with their reported answers.
| SUBSTANCE | amyloid nucleation score |
| --- | --- |
| CCAYFVGLGCVQLTKWFSLL | inactive |
| SSYIESQELHSWAVQLRLLV | inactive |
| GYYFWQWLRIIL | inactive |
| RPYGSEVVIFMSVSRKPPPA | 0.661 |
| CCVDPLAELLICMTALIASR | inactive |
| FLCRAVRDKNHDIGLCWELR | -0.488 |

Query: Entry NKVSWIFNDSKGQGSV has what amyloid nucleation score?
Result: -0.291

Query: Note, next up: RSGWCHLPQVRNMWTVIIDG
Result: -0.648

Query: Further, for YHDFLYIEGWQMSETNSFEC ?
Result: inactive

Query: Same thing, different substance: SLAMTFYSGIGFYCFSCFFN
Result: 2.36

Query: Now this one: CCFPVVRKPFG
Result: inactive

Query: Queued: CMMPLNATRYVYLPNAAHSL
Result: inactive

* * *

ASSAY NAME: amyloid nucleation score (Sup35N fusion, yeast selection) (log enrichment); library NNK1; higher = more nucleation; inactive = no reads after selection
Give 1.0 when the value for amyloid nucleation score is at least 0.5. Give 0.0 when it is less.

Query: Please check the record VLKCRERRFRIHGHWTRRGP and state if its amyloid nucleation score is at or above 0.5.
Result: 0.0

Query: Can you handle LRLNDSSLRIPEAA next?
Result: 0.0

Query: // repeat for VSAVDMMYHLLHRILGIIAC and report
Result: 1.0

Query: Next sequence: ALSEFIFGLWLSFLIPRYMW
Result: 1.0

Query: Please do the same for TLVTEESWMSLLSVNIAQ as well.
Result: 0.0

Query: Next up: CSLKKSMQNYEFHFWFLFIV
Result: 0.0

* * *

ASSAY NAME: amyloid nucleation score (Sup35N fusion, yeast selection) (log enrichment); library NNK3; higher = more nucleation; inactive = no reads after selection
ATTRIBUTE MEASURED: amyloid nucleation score

| SUBSTANCE | amyloid nucleation score |
| --- | --- |
| KNFQPKTS | 0.082 |
| VWVDFGFPVHMIIL | inactive |
| YITDYNQVSAHTQNKKTMGY | inactive |
| SNVCINLAGYDYIFFRCMMG | 0.293 |
| TNFPLALSSRIPSASQISMQ | -0.547 |
| YFCFVLFYLN | 2.04 |
| LFLYQLLSGHC | inactive |
| TVQNVLCHCMMSNMAYWGHQ | 2.63 |
| CLTTVRLRNYFF | inactive |
| LFDHYWLGSWIVENSYPSGE | inactive |

Query: Can you share its amyloid nucleation score? I mean this substance: PHVLVESLW
Result: inactive

Query: Also need ATELYLGVICNKMRW , thanks.
Result: inactive

Query: // same read-out, input: GIVDQFRTVSNNVLNQYEIW
Result: inactive

* * *

ASSAY NAME: amyloid nucleation score (Sup35N fusion, yeast selection) (log enrichment); library NNK3; higher = more nucleation; inactive = no reads after selection
ATTRIBUTE MEASURED: amyloid nucleation score

These recorded examples may help you get a feel for the data.
| SUBSTANCE | ATTRIBUTE MEASURED | RESULT |
| --- | --- | --- |
| DDGSKCLLSSMMFVNLVTYC | amyloid nucleation score | inactive |
| VFGRWCFLETCMMHFTFSRY | amyloid nucleation score | 0.865 |
| SREWSKSVVCTYLTMRGRLS | amyloid nucleation score | inactive |
| YPRTSFRFKGCDKEVVSDLL | amyloid nucleation score | inactive |
| LHLGMRLV | amyloid nucleation score | inactive |

Next, consider the following substance.
Query: # get_value(readout='amyloid nucleation score', item= YDGCDS )
Result: inactive
